Measure: melting point

molecule="COC(=O)[C@]1(C)CCC[C@@]2(C)C3CC[C@]4(O)C[C@@]3(CCC21)[C@@H](O)[C@]4(O)CNCc1ccccc1 (stereo partly drawn)" measured_value="119 to 122 °C"
molecule="CC[C@@H](NC[C@@]1(O)[C@H](O)[C@@]23CCC4[C@@](C)(CCC[C@@]4(C)C(=O)OC)C2CC[C@]1(O)C3)c1ccccc1 (stereo partly drawn)" measured_value="138 to 141 °C"
molecule="COC(=O)[C@]1(C)CCC[C@@]2(C)C3CC[C@]4(O)C[C@@]3(CCC21)[C@@H](O)[C@]4(O)CN(C)Cc1ccccc1 (stereo partly drawn)" measured_value="162 to 166 °C"
